- assay.protocol: Pharmacokinetic assay in mice
- Format: in vivo, Balb/c mice
- condition.info: plasma, 10 mg/kg; mouse, PO 10mpk
- Experimental: Eighteen male Balb/c mice aged 6 to 8 weeks were randomly divided into 2 groups (IV group and PO group). […] Pharmacokinetic parameters of the drug were calculated based on the drug concentration-time data, including the peak concentration Cmax, peak time Tmax, clearance rate CL, steady state apparent volume of distribution Vss, area under drug-time curve AUC, elimination half-life t1/2, bioavailability, and the like. […]
Some compounds, each annotated with its measured AUC(0-t).
observed.property: AUC(0-t) (µM·h)

Cn1ncc2c(N)nc3cc(F)c(C(=O)N4CCOC[C@@H]4c4ccc5c(c4)OC(F)(F)O5)cc3c21 [Example I-7]
38
Nc1nc2cnc(C(=O)N3CCOC[C@@H]3c3ccc4c(c3)OC(F)(F)O4)cc2c2c1COC2 [Example I-109]
44.1

====

- assay.protocol: Pharmacokinetic assay in mice
- Assay type: in vivo, Balb/c mice
- condition.info: male, Balb/c, plasma, 10 mg/kg; mouse, PO 10mpk
Some molecules, each annotated with its measured Cmax.
observed.property: Cmax (µM)

CCN(Cc1ccc2c(c1)OC(F)(F)O2)C(=O)c1ccc2nc(N)c3cnn(C)c3c2c1 [Example I-5]
1.93
CN(Cc1ccc2c(c1)OC(F)(F)O2)C(=O)c1cc2c(cc1F)nc(N)c1cnn(C)c12 [Example I-1]
3.24
Nc1nc2cnc(C(=O)N3CCOC[C@@H]3c3ccc(C(F)(F)F)cc3)cc2c2c1COC2 [Control compound B, reference compound]
5.76
Cn1ncc2c(N)nc3cc(F)c(C(=O)N(Cc4ccc5c(c4)OC(F)(F)O5)C4CC4)cc3c21 [Example I-16]
4.76
CN(Cc1ccc2c(c1)OC(F)(F)O2)C(=O)c1ccc2nc(N)c3cnn(C)c3c2c1 [Example I-2]
2.19

====

- tested.on: hERG Potassium Ion Channel (Homo sapiens)
- Construct: expressed in transfected cells; host or cells: HEK293
- assay.protocol: Effect on hERG potassium ion channel (whole-cell patch clamp, HEK293 cells)
- Assay type: cell-based
- condition.info: human, whole-cell patch clamp (Qpatch), room temperature
pIC50: −log10 of the molar value.
observed.property: pIC50

Cn1ncc2c(N)nc3cnc(C(=O)N4CCOC[C@@H]4c4ccc5c(c4)OC(F)(F)O5)cc3c21
4.66

====

- tested.on: hERG Potassium Ion Channel (Homo sapiens, UniProt Q12809)
- Construct: expressed in transfected cells; host or cells: HEK293
- Sequence (Q12809 whole entry): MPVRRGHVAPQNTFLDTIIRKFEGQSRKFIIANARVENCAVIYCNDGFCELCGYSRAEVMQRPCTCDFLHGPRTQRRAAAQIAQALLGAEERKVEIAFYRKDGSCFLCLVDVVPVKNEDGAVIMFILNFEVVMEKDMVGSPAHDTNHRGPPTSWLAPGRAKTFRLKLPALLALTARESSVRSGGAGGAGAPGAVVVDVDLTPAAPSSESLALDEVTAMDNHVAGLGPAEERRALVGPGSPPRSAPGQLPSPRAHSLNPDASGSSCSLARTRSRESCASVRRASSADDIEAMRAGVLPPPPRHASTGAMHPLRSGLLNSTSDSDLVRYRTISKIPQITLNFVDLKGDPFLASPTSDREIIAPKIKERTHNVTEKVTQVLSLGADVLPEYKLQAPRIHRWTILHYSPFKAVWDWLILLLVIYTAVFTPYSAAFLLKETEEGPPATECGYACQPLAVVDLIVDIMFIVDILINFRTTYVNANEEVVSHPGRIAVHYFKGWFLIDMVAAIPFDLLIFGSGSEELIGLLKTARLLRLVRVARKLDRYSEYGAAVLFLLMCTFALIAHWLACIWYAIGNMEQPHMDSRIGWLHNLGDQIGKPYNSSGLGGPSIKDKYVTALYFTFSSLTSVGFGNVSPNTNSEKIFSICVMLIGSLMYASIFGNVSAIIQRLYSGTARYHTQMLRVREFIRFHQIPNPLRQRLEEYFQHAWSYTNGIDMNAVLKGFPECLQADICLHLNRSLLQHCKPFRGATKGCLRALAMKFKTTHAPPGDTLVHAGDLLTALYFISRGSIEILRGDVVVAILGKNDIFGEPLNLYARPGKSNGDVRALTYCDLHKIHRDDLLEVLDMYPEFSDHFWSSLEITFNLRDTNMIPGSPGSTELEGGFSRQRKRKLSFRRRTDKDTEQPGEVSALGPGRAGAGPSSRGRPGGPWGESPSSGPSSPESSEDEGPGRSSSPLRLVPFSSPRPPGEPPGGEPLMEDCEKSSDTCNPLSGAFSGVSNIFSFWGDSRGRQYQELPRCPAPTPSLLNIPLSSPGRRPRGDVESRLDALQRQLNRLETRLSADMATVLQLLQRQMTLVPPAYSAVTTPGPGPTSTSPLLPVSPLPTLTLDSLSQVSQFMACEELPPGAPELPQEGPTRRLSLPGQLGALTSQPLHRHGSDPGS
- assay.protocol: Effect on hERG potassium ion channel (whole-cell patch clamp, HEK293 cells)
- Format: cell-based
- condition.info: whole-cell patch clamp (Qpatch), room temperature
observed.property: IC50

Cn1ncc2c(N)nc3cnc(C(=O)N4CCOC[C@@H]4c4ccc(C(F)(F)F)cc4)cc3c21 [Control compound A, reference compound]
13 µM

====

- assay.protocol: Pharmacokinetic assay in rats
- Format: in vivo, SD rats
- condition.info: plasma, 2 mg/kg; rat, IV 2mpk
observed.property: AUC(0-t) (µM·h)

Cn1ncc2c(N)nc3cnc(C(=O)N4CCOC[C@@H]4c4ccc5c(c4)OC(F)(F)O5)cc3c21 [Example I-38]
4

====

- assay.protocol: Pharmacokinetic assay in rats
- Assay type: in vivo, SD rats
- condition.info: SD, plasma, 100 mg/kg; rat, PO 100mpk
observed.property: Cmax (µM)

Cn1ncc2c(N)nc3cnc(C(=O)N4CCOC[C@@H]4c4ccc(C(F)(F)F)cc4)cc3c21 [Control compound A, reference compound]
5.42

All figures here come from patent EP4700025A1.
